# Experimental System: FKBP51 (Homo sapiens (Human))
# Sequence (Q13451 whole entry): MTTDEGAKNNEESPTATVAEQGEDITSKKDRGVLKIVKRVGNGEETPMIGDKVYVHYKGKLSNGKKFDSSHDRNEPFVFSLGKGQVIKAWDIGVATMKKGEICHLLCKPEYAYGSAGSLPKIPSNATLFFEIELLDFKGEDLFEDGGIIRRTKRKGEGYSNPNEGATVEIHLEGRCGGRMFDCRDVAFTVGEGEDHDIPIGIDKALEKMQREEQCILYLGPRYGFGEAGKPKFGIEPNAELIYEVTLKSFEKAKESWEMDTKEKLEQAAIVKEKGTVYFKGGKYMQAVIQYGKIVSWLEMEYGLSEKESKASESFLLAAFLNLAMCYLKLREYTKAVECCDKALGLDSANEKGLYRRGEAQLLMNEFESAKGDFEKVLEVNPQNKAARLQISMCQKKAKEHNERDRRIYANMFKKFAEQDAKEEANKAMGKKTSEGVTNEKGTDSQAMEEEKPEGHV
pKd: −log10 of the molar value.
Catalogue of pKd readings, one per entry.

Record excerpt, results attached:
INSERT INTO assay_data (compound, experimental_system, endpoint, reported_result) VALUES
  ('COC1CC(CC(C)C2CC(=O)C(C)C=C(C)C(O)C(OC)C(=O)C(C)CC(C)C=CC=CC=C(C)C(OCC3CCCC3)CC3CCC(C)C(O)(O3)C(=O)C(=O)N3CCCCC3C(=O)O2)CCC1O (centres unmarked)', 'FKBP51 (Homo sapiens (Human))', 'pKd', '< 7.00'),
  ('COC1CC(CC(C)C2CC(=O)C(C)C=C(C)C(O)C(OC)C(=O)C(C)CC(C)C=CC=CC=C(C)C(OCC3CC3)CC3CCC(C)C(O)(O3)C(=O)C(=O)N3CCCCC3C(=O)O2)CCC1OCCO (centres unmarked)', 'FKBP51 (Homo sapiens (Human))', 'pKd', '< 7.00');

GET pKd | system: FKBP51 (Homo sapiens (Human)) | item: COC1CC(CC(C)C2CC(=O)C(C)C=C(C)C(O)C(OC)C(=O)C(C)CC(C)C=CC=CC=C(C)C(OCC3CC3)CC3CCC(C)C(O)(O3)C(=O)C(=O)N3CCCCC3C(=O)O2)CCC1OCCCO (centres unmarked) [Compound 42]
< 7.00

GET pKd | system: FKBP51 (Homo sapiens (Human)) | item: COCCS(=O)(=O)NC1CC2CCC(C)C(O)(O2)C(=O)C(=O)N2CCCCC2C(=O)OC(C(C)CC2CCC(OCCO)C(OC)C2)CC(=O)C(C)C=C(C)C(O)C(OC)C(=O)C(C)CC(C)C=CC=CC=C1C (mixture of isomers)
7.00 to 8.00

GET pKd | system: FKBP51 (Homo sapiens (Human)) | item: CCOC(=O)COC1CCC(CC(C)C2CC(=O)C(C)C=C(C)C(O)C(OC)C(=O)C(C)CC(C)C=CC=CC=C(C)C(OCC3CC3)CC3CCC(C)C(O)(O3)C(=O)C(=O)N3CCCCC3C(=O)O2)CC1OC (centres unmarked) [Compound 50]
< 7.00

###

# Experimental System: FKBP51 / FRB ternary complex (Homo sapiens (Human), UniProt P42345+Q13451)
# Experiment Notes: SPR assay to characterize ternary complex formation with FKBP51 (FRB binding to rapalog-saturated FKBP51)
# Experimental Setup: FRB dilutions with 100 nM rapalog on immobilized FKBP51
pKd: −log10 of the molar value.
Endpoint: pKd

INSERT INTO measurements (compound, endpoint, reported_result) VALUES
  ('CCOC(=O)COC1CCC(CC(C)C2CC(=O)C(C)C=C(C)C(O)C(OC)C(=O)C(C)CC(C)C=CC=CC=C(C)C(OC3CC3)CC3CCC(C)C(O)(O3)C(=O)C(=O)N3CCCCC3C(=O)O2)CC1OC (centres unmarked)', 'pKd', '< 6.10');

Attention now turns to another entry.
Return value of pKd for input `CO[C@@H]1C[C@H](C[C@@H](C)[C@@H]2CC(=O)[C@H](C)/C=C(\C)[C@H](O)[C@@H](OC)C(=O)[C@H](C)C[C@H](C)/C=C/C=C/C=C(\C)[C@@H](OCCC3COC3)C[C@@H]3CC[C@@H](C)[C@@](O)(O3)C(=O)C(=O)N3CCCC[C@H]3C(=O)O2)CC[C@H]1O` , no commentary.
< 6.10

###

# Experimental System: FKBP12 / FRB ternary complex (Homo sapiens (Human), UniProt P42345+P62942)
# Experiment Notes: SPR assay to characterize ternary complex formation with FKBP12 (FRB binding to rapalog-saturated FKBP12)
# Experimental Setup: FRB dilutions with 100 nM rapalog on immobilized FKBP12
Catalogue of Kd readings, one per entry.

Record excerpt, results attached:
INSERT INTO assay_data (compound, reported_result) VALUES
  ('CCOC(=O)CS(=O)(=O)NC1C[C@H]2CC[C@H](C)[C@](O)(O2)C(=O)C(=O)N(C)C(C)C(=O)OC([C@H](C)C[C@@H]2CC[C@@H](OC3CC3)[C@H](OC)C2)CC(=O)C(C)/C=C(\C)C(O)C(OC)C(=O)C(C)CC/C=C/C=C/C=C/1C (stereo partly shown) [Compound 12]', '300 to 800 nM'),
  ('COC1CC(CC(C)C2CC(=O)C(C)C=C(C)C(O)C(OC)C(=O)C(C)CC(C)C=CC=CC=C(C)C(OCC3CC3)CC3CCC(C)C(O)(O3)C(=O)C(=O)N3CCCCC3C(=O)O2)CCC1OCCCO (stereo not shown) [Compound 43]', '< 300 nM'),
  ('COCCOCCOCCOC1CC2CCC(C)C(O)(O2)C(=O)C(=O)N2CCCCC2C(=O)OC(C(C)CC2CCC(OCCCS(C)(=O)=O)C(OC)C2)CC(=O)C(C)C=C(C)C(O)C(OC)C(=O)C(C)CC(C)C=CC=CC=C1C (mixture of isomers) [Compound 66]', '> 800 nM'),
  ('COC1CC(CC(C)C2CC(=O)C(C)C=C(C)C(O)C(OC)C(=O)C(C)CC(C)C=CC=CC=C(C)C(OCC3CCCC3)CC3CCC(C)C(O)(O3)C(=O)C(=O)N3CCCCC3C(=O)O2)CCC1O (stereo not shown) [Compound 40]', '300 to 800 nM'),
  ('CO[C@@H]1C[C@H](C[C@@H](C)[C@@H]2CC(=O)[C@H](C)/C=C(\C)[C@@H](O)[C@@H](OC)C(=O)[C@H](C)C[C@H](C)/C=C/C=C/C=C(\C)[C@@H](OCCC3CCOC3)C[C@@H]3CC[C@@H](C)[C@@](O)(O3)C(=O)C(=O)N3CCCC[C@H]3C(=O)O2)CC[C@H]1O (stereo partly shown) [Compound 32]', '300 to 800 nM');

Return value of Kd for input COC1CC(CC(C)C2CC(=O)C(C)C=C(C)C(O)C(OC)C(=O)C(C)CC(C)C=CC=CC=C(C)C(OCC3CC(F)(F)C3)CC3CCC(C)C(O)(O3)C(=O)C(=O)N3CCCCC3C(=O)O2)CCC1O (stereo not shown) [Compound 41] , no commentary.
> 800 nM

###

# Experimental System: mTORC1 (Homo sapiens (Human), UniProt P42345+P62942)
# Experiment Notes: mTORC1 inhibition, AlphaLISA of Phospho-p70 S6 kinase (p70S6K pT389) in PC-3 cells
# Experimental Setup: inhibition of p70S6K pT389 levels
pIC50: −log10 of the molar value.
Catalogue of pIC50 readings, one per entry.

INSERT INTO results (compound, endpoint, reported_result) VALUES
  ('CO[C@@H]1C[C@H](C[C@@H](C)[C@@H]2CC(=O)[C@H](C)/C=C(\C)[C@@H](O)[C@@H](OC)C(=O)[C@H](C)C[C@H](C)/C=C/C=C/C=C(\C)[C@@H](NS(=O)(=O)CC3CCCCC3)C[C@@H]3CC[C@@H](C)[C@@](O)(O3)C(=O)C(=O)N3CCCC[C@H]3C(=O)O2)CC[C@H]1O [Compound 20]', 'pIC50', '9.10 to 10.00'),
  ('CCOC(=O)COC1CCC(CC(C)C2CC(=O)C(C)C=C(C)C(O)C(OC)C(=O)C(C)CC(C)C=CC=CC=C(C)C(OCCOC)CC3CCC(C)C(O)(O3)C(=O)C(=O)N3CCCCC3C(=O)O2)CC1OC (stereo not drawn) [Compound 56]', 'pIC50', '9.10 to 10.00'),
  ('CO[C@@H]1C[C@H](C[C@@H](C)[C@@H]2CC(=O)[C@H](C)/C=C(\C)[C@@H](O)[C@@H](OC)C(=O)[C@H](C)C[C@H](C)/C=C/C=C/C=C(\C)[C@H](OCCCO)C[C@@H]3CC[C@@H](C)[C@@](O)(O3)C(=O)C(=O)N3CCCC[C@H]3C(=O)O2)CC[C@H]1OCCCS(C)(=O)=O [Compound 69]', 'pIC50', '9.10 to 10.00'),
  ('COC1CC(CC(C)C2CC(=O)C(C)C=C(C)C(O)C(OC)C(=O)C(C)CC(C)C=CC=CC=C(C)C(OC3CCOC3)CC3CCC(C)C(O)(O3)C(=O)C(=O)N3CCCCC3C(=O)O2)CCC1O (stereo not drawn) [Compound 35]', 'pIC50', '< 9.10'),
  ('COCCS(=O)(=O)NC1CC2CCC(C)C(O)(O2)C(=O)C(=O)N2CCCCC2C(=O)OC(C(C)CC2CCC(OCCO)C(OC)C2)CC(=O)C(C)C=C(C)C(O)C(OC)C(=O)C(C)CC(C)C=CC=CC=C1C (mixture of isomers) [Compound 16]', 'pIC50', '9.10 to 10.00');

Attention now turns to another entry.
Return value of pIC50 for input COC1CC(CC(C)C2CC(=O)C(C)C=C(C)C(O)C(OC)C(=O)C(C)CC(C)C=CC=CC=C(C)C(OCC3CC3)CC3CCC(C)C(O)(O3)C(=O)C(=O)N3CCCCC3C(=O)O2)CCC1O (stereo not drawn) [Compound 39] , no commentary.
9.10 to 10.00
